# ASSAY_TARGET: adenosine deaminase of type VII (mucous membrane of intestinal tract of calf) (Bos taurus, UniProt P56658)
# Sequence (P56658 whole entry): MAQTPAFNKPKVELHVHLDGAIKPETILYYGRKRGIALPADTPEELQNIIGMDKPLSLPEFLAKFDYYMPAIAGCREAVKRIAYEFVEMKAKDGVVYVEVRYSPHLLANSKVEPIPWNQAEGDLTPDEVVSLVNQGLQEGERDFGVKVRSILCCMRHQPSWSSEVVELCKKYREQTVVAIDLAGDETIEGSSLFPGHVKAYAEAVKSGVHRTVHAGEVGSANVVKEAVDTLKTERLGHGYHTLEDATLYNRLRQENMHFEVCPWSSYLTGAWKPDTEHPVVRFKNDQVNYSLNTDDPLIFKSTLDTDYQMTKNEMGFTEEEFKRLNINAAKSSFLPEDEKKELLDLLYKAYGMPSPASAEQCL
In this section, each of the compounds is paired with its reported log10 of Ki.
MEASUREMENT_NAME: log10 of Ki (log10 of the value in µM)

COMPOUND: CCCCCNc1nc(N)c2ncn([C@@H]3O[C@H](CO)[C@@H](O)[C@H]3OC)c2n1 [Compound 52, 2-Pentylamino-2'-O-methyladenosine]
EXPERIMENTAL_VALUE: -0.22
//
COMPOUND: CO[C@H]1[C@@H](O)[C@H](n2cnc3c(N)nc(-c4ccccc4)nc32)O[C@@H]1CO [Compound 38, 2-Phenyl-3'-O-methyladenosine]
EXPERIMENTAL_VALUE: 0.90
//
COMPOUND: CO[C@@H]1[C@H](O)[C@@H](CO)O[C@H]1n1cnc2c(NC3CCCCC3)ncnc21 [Compound 73, N^6 -Cyclohexyl-2'-O-methyladenosine]
EXPERIMENTAL_VALUE: 3.01
//
COMPOUND: CCCCC#Cc1nc(NC)c2ncn([C@@H]3O[C@H](CO)[C@@H](O)[C@H]3OC)c2n1 [Compound 32]
EXPERIMENTAL_VALUE: -0.92
//
COMPOUND: CO[C@@H]1[C@H](O)[C@@H](CO)O[C@H]1n1cnc2c(N)nc(Nc3ccccc3)nc21 [Compound 53, 2-Phenylamino-2'-O-methyladenosine]
EXPERIMENTAL_VALUE: -0.77
//
COMPOUND: CO[C@@H]1[C@H](O)[C@@H](CO)O[C@H]1n1cnc2c(N)nc(-c3ccccc3)nc21 [Compound 37, 2-Phenyl-2'-O-methyladenosine]
EXPERIMENTAL_VALUE: -0.18
//
COMPOUND: CO[C@@H]1[C@H](OC)[C@@H](CO)O[C@H]1n1cnc2c(N)ncnc21 [Compound 59, 2',3'-O-Dimethyladenosine]
EXPERIMENTAL_VALUE: 0.88
//
COMPOUND: CNc1nc(C)nc2c1ncn2[C@@H]1O[C@H](COC)[C@@H](O)[C@H]1O [Compound 34, 2,N^6,5'-O-Trimethyladenosine]
EXPERIMENTAL_VALUE: 2.56
